Hey, just so you know, these numbers are from patent US20200131180A1.

target-under-test: human mAChR M1 (Homo sapiens, UniProt P11229)
Sequence (P11229 whole entry): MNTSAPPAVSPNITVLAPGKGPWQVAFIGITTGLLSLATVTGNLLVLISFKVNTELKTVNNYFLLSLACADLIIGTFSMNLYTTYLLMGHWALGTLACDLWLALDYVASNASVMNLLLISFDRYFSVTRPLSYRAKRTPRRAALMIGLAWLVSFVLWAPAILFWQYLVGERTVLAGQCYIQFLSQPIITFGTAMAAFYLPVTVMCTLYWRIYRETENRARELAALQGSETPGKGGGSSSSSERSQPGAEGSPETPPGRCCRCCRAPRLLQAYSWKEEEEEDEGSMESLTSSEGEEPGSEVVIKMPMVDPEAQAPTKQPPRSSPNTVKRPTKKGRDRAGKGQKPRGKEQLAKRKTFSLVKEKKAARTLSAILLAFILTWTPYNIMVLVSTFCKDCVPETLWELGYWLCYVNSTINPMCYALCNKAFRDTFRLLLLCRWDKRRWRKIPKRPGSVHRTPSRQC
method-summary: mAChR M1 cell-based functional assay (calcium mobilization, PAM activity)
conditions: CHO-K1 cells expressing hM1; calcium flux (Fluo-4); potentiation of EC20 acetylcholine response
Entry flag: Met if Emax reaches 80%; Not met if it does not.

- compound: "Cn1ccc(-c2ccc(Cc3cc(C(=O)N[C@@H]4CC[C@H]4O)c4ncnn4c3)cc2)n1 [compound 10]"
  assigned-label: "Not met"
- compound: "Cn1cc(-c2ccc(Cc3cc(C(=O)N[C@H]4CCCC[C@@H]4O)c4ncnn4c3)cn2)cn1 [compound 13]"
  assigned-label: "Met"
- compound: "Cn1ccc(-c2ccc(Cc3cc(C(=O)N[C@H]4CCOC[C@@H]4O)c4nccn4c3)c(F)c2)n1 [compound 53]"
  assigned-label: "Not met"

Turning to the following compound.
-- ask Reported Emax reaches at least 80% for Cn1cc(-c2ccc(Cc3cc(C(=O)N[C@H]4CCOC[C@@H]4O)c4nccn4c3)cc2)cn1 [compound 65] ?
-- reply Met
